# Measured target: T1, 재조합 인간 ASM(acid sphingomyelinase) 단백질 (human, UniProt P17405 62-630, limits assumed)
# T1 construct: Recombinant protein, bought (R&D systems in the ELISA); also called 인간 ASM 단백질; recombinant human ASM protein
# T1 sequence: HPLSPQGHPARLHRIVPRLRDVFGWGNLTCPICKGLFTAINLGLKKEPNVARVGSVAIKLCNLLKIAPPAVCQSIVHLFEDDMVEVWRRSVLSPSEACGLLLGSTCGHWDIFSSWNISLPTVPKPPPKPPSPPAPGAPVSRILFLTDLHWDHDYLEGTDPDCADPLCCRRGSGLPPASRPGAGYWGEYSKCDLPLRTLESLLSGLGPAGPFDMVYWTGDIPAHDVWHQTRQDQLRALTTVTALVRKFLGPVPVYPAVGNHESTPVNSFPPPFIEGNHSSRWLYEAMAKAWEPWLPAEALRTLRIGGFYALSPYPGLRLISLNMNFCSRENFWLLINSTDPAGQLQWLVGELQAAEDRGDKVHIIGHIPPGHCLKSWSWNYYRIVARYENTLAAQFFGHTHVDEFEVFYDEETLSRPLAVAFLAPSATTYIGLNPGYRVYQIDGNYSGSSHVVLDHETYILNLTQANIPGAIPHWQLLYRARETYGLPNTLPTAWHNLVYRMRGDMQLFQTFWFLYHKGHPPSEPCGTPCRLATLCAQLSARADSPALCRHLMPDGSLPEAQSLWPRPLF
# Assay procedure: BLI (Octet QK384), human ASM amine-coupled on AR2G sensor, antibody 0.4, 2, 10 nM
# Lookup of reported kon keyed by entry
Lab book: enter the figure in M⁻¹ s⁻¹, no units written.

Sample answers from the record:
Binder | Reported result
#9104 항체 (antibody, mouse IgG1, V domains shown) VH: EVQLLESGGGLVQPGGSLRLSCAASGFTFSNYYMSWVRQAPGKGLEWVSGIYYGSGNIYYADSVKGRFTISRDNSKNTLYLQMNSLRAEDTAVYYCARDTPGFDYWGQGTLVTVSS VL: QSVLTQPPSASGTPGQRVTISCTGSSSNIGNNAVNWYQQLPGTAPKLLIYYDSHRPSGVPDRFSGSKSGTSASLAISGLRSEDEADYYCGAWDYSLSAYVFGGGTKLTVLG | 392000
#9101 항체 (antibody, mouse IgG1, V domains shown) VH: EVQLLESGGGLVQPGGSLRLSCAASGFTFSNYAMSWVRQAPGKGLEWVSGIYPNGGNKYYADSVKGRFTISRDNSKNTLYLQMNSLRAEDTAVYYCAKNAYRFDYWGQGTLVTVSS VL: QSVLTQPPSASGTPGQRVTISCSGSSSNIGNNYVSWYQQLPGTAPKLLIYADSKRPSGVPDRFSGSKSGTSASLAIGGLRSEDEADYYCGSWDYSLNAYVFGGGTKLTVLG | 626000
#9113 항체 (antibody, mouse IgG1, V domains shown, also called #9113 mIgG1) VH: EVQLLESGGGLVQPGGSLRLSCAASGFTFSSYYMSWVRQAPGKGLEWVSSISPGGSSIYYADSVKGRFTISRDNSKNTLYLQMNSLRAEDTAVYYCAKGASLFDYWGQGTLVTVSS VL: QSVLTQPPSASGTPGQRVTISCSGSSSNIGNNAVSWYQQLPGTAPKLLIYSDNKRPSGVPDRFSGSKSGTSASLAISGLRSEDEADYYCGTWDASLNAYVFGGGTKLTVLG | 1.16e+06

Turning now to a further binder:
Per the records, this binder ( #9108 항체 (antibody, mouse IgG1, V domains shown) VH: EVQLLESGGGLVQPGGSLRLSCAASGFTFSNYAMSWVRQAPGKGLEWVSAIYPGGGSIYYADSVKGRFTISRDNSKNTLYLQMNSLRAEDTAVYYCARDVLGLTPKPFDYWGQGTLVTVSS VL: QSVLTQPPSASGTPGQRVTLSCTGSSSNIGSNTVYWYQQLPGTAPKLLIYANSQRPSGVPDRFSGSKSGTSASLAISGLRSEDEADYYCGSWDYSLSGYVFGGGTKLTVLG ) has kon equal to 249000
